Biological target: Large neutral amino acids transporter small subunit 1 (Homo sapiens, UniProt Q01650)
Sequence (Q01650 whole entry): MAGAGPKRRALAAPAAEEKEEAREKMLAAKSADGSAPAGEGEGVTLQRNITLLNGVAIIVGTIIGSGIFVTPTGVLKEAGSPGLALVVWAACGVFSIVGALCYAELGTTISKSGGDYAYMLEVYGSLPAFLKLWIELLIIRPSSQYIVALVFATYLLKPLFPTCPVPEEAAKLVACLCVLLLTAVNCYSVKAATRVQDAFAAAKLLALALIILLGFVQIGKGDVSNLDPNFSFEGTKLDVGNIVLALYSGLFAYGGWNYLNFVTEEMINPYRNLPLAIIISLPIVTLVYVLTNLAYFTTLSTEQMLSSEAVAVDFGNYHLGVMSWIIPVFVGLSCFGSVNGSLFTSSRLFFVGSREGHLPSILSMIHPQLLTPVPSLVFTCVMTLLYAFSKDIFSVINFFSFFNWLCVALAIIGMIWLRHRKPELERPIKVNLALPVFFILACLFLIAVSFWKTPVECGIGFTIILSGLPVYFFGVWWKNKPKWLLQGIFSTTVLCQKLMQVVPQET
Experiment: Inhibition of human LAT1 expressed in HEK293-T-Rex cells assessed as inhibition of [3H]-gabapentin uptake at 200 uM by scintillation counting cis-inhibition assay
Format: cell-based
We begin with a simple list: items and their reported inhibition.
Respond with the bare value in %.

Sample answers from the record:
INSERT INTO measurements (molecule, metric_name, readout_number) VALUES
  ('CC(C)C[C@H](N)C(=O)NO', 'inhibition', 50),
  ('N[C@@H](Cc1c[nH]c2ccccc12)C(=O)NO', 'inhibition', 35),
  ('NCC(=O)O', 'inhibition', 33),
  ('N[C@@H](Cc1ccc(O)cc1)C(=O)NO', 'inhibition', 39),
  ('CS(=O)(=O)NC(=O)[C@@H](N)Cc1ccc(O)cc1', 'inhibition', 12);

Ask: Hi! What's the reported inhibition for "N[C@@H](Cc1ccccc1)c1nnn[nH]1" on Large neutral amino acids transporter small subunit 1 (Homo sapiens, UniProt Q01650)?
Reply: 11

Ask: Hi! What's the reported inhibition for "CS(=O)(=O)NC(=O)[C@@H](N)Cc1ccccc1" on Large neutral amino acids transporter small subunit 1 (Homo sapiens, UniProt Q01650)?
Reply: 15

Ask: Hi! What's the reported inhibition for "NCC(=O)NO" on Large neutral amino acids transporter small subunit 1 (Homo sapiens, UniProt Q01650)?
Reply: 38

###

Target: Large neutral amino acids transporter small subunit 1 (Homo sapiens)
Assay: Inhibition of human LAT1 expressed in HEK293-T-Rex cells assessed as inhibition of [3H]-gabapentin uptake by scintillation counting cis-inhibition assay relative to BCH inhibition (RV = 100%)
metric_name: IC50

INSERT INTO measurements (compound, tested_target, result) VALUES
  ('CC(C)C[C@H](N)C(=O)O [LEUCINE]', 'Large neutral amino acids transporter small subunit 1 (Homo sapiens)', '87 µM'),
  ('CC[C@H](C)[C@H](N)C(=O)NO', 'Large neutral amino acids transporter small subunit 1 (Homo sapiens)', '> 200 µM'),
  ('CC[C@H](C)[C@H](N)C(=O)O [ISOLEUCINE]', 'Large neutral amino acids transporter small subunit 1 (Homo sapiens)', '150 µM'),
  ('NCC(=O)NO', 'Large neutral amino acids transporter small subunit 1 (Homo sapiens)', '> 200 µM'),
  ('CC(C)C[C@H](N)C(N)=O', 'Large neutral amino acids transporter small subunit 1 (Homo sapiens)', '> 200 µM'),
  ('CSCC[C@H](N)C(=O)O [METHIONINE]', 'Large neutral amino acids transporter small subunit 1 (Homo sapiens)', '180 µM'),
  ('NCC(=O)O [GLYCINE]', 'Large neutral amino acids transporter small subunit 1 (Homo sapiens)', '> 200 µM'),
  ('CC(C)C[C@H](N)C(=O)NO', 'Large neutral amino acids transporter small subunit 1 (Homo sapiens)', '> 200 µM'),
  ('CSCC[C@H](N)C(=O)NO', 'Large neutral amino acids transporter small subunit 1 (Homo sapiens)', '> 200 µM');

// next entry
Ask: If you can, please state the reported IC50 value of "CONC(=O)[C@@H](N)CC(C)C" .
Reply: > 200 µM
